target.entity: recombinant soluble homotrimeric HA, A/Indonesia/5/05 H5N1 (Influenza A virus A/Indonesia/5/2005(H5N1))
protocol.details: microarray, transfection SN IgG, trimeric HA
measurement.parameters: remark: other sources report otherwise
readout.label: Trimeric HA Binding: RLU (RLU)

>>> reported("TCN-552 (5249_I23) (antibody, V domains shown) VH: QVQVVQSGAEVKKPGSSVRVSCQASGGTFMNYAIIWVRRAPGQGLEWMGGIIPVFPTPNYAQMFQGRVTISTDESRSTSFLELTNLRYEDTAVYYCARRIYHGGNSGFDFWGQGTLVTVSS VL: EIVLTQSPATLSLSPGERATLSCRASQSVGNYLAWYQQKPGQAPRLLIYDSSNRAPGIPARFSGSGSGTDFTLTISSLAPEDFAVYYCQQRSKWPPMYSFGHGTKLEIK")
43400
